Data provenance is a melting point compilation (Tetko et al.; mined from patent text by program, amines drawn as free bases though some values may be those of a salt).

Experimental endpoint: melting point

[[record]]
compound = "CON(C(=O)c1cn(C)nc1C(F)F)C(C)c1cccc(I)c1 (stereo not given)"
experimental_endpoint = "melting point"
readout_value = "136 to 138 °C"

[[record]]
compound = "CC(C)c1cc(S(N)(=O)=O)c(C(C)C)cc1Br"
experimental_endpoint = "melting point"
readout_value = "145 to 152 °C"

[[record]]
compound = "ClCc1cn2ccccc2n1"
experimental_endpoint = "melting point"
readout_value = "93 to 94 °C"

[[record]]
compound = "CCC1CC2C3CCC4=CC(=O)CCC4=C3C=CC2(C)C1OC(C)=O (stereo not given)"
experimental_endpoint = "melting point"
readout_value = "95 to 98 °C"

[[record]]
compound = "CNC(=O)c1cc2nc(C(F)(F)F)ccc2cc1NC(=O)c1cc(Br)nn1-c1ncccc1Cl"
experimental_endpoint = "melting point"
readout_value = "127 to 129 °C"


Given item `O=C1CCC(=O)N1CCCCCNC(=O)n1cc(F)c(=O)[nH]c1=O` , the value recorded as its melting point is 142 °C

Given item `CCCCOc1ccc(S(=O)(=O)C2(C(=O)NO)CCN(CCOc3ccccc3)CC2)cc1` , the value recorded as its melting point is 112 °C

Given item `O=C1[C@@H]2Cc3ccccc3CN2C(=O)N1c1cc(Cl)cc(Cl)c1` , the value recorded as its melting point is 243 °C

Given item `O=S(=O)(O)c1ccc(Nc2ncnc3ccc(Cl)cc23)cc1` , the value recorded as its melting point is > 300 °C

Given item `CCCOc1ccc(S(C)(=O)=O)cc1C(=O)Nc1c(C(N)=O)nn(CC2CC2)c1CC` , the value recorded as its melting point is 185 to 186 °C

----------
Experimental endpoint: melting point

[[record]]
compound = "O=C(Nc1ccc2[nH]ncc2c1)N[C@@H](c1ccccc1)[C@@H]1CCCCN1"
readout_value = "147 to 149 °C"

[[record]]
compound = "CCN(CC)c1ccc(C2OC(=O)c3cc(N(C)C)ccc32)c(C)c1 (centres undefined)"
readout_value = "123 to 125 °C"

[[record]]
compound = "Cc1cccc(-c2nc(NCc3ccc(Cl)cc3)c3ccccc3n2)n1"
readout_value = "210 to 212 °C"

[[record]]
compound = "COc1ccc2c3c([nH]c2c1)C(=S)C(CC1CCN(C(=O)OC(C)(C)C)CC1)C3 (centres undefined)"
readout_value = "188 to 189 °C"

[[record]]
compound = "CC(C)(C)c1ccc(Cn2cc(C(=O)C(=O)O)c3ccc(-c4ccc(OC(F)(F)F)cc4)cc32)cc1"
readout_value = "183 to 186 °C"

[[record]]
compound = "CC(C)(C)N1C(=O)[C@@H]2C[C@H]1CN2C(=O)[C@@H](O)[C@H](Cc1ccccc1)NC(=O)[C@H](CC(N)=O)NC(=O)OCc1ccccc1"
readout_value = "112 to 115 °C"


Given item `CCc1cccc2cc(C(C)=O)oc12` , the value recorded as its melting point is 59 to 60 °C

Given item `Cc1ccc(Nc2c3ccccc3nc3ccccc23)cc1[N+](=O)[O-]` , the value recorded as its melting point is > 280 °C

Given item CCOC(=O)C1OC1C(=O)Nc1ccccc1 (centres undefined) , the value recorded as its melting point is 83 to 84 °C

----------
Measured melting point of individual entries

Observe how each entry below is paired with its result.
[[record]]
structure = "CCCCCc1cnc(N2CCC(c3ccc(COc4ccc(C#N)c(F)c4)nc3)CC2)nc1"
readout_value = "92 to 94 °C"

[[record]]
structure = "Cc1cc(Nc2ccccn2)c(S(C)(=O)=O)cc1C(=O)N=C(N)N"
readout_value = "225 to 226 °C"


Given item `Cc1ccsc1C(=O)Nc1ccc(-n2nc(C(F)(F)F)cc2C(F)(F)F)cc1` , the value recorded as its melting point is 185 to 188 °C

Given item `CCOC(=O)C(C(=O)OCC)c1c(Cl)cnc2c([N+](=O)[O-])cccc12` , the value recorded as its melting point is 102 °C

Given item `C=CCN1C(=O)NC(=C(C(=O)OCC)C(=O)OCC)C1=O` , the value recorded as its melting point is 91 to 92 °C

----------
Experimental endpoint: melting point

Observe how each entry below is paired with its result.
[[record]]
molecule = "C=CCN1C(=O)CCc2cc(Sc3cccc([C@@]4(O)CCO[C@@H](C)C4)c3)ccc21"
readout_value = "107 to 109 °C"

[[record]]
molecule = "Cc1c(-c2cc(CO)c(Cl)cc2F)nn(C)c1C(F)(F)F"
readout_value = "58 °C"

[[record]]
molecule = "CC1CCC2Oc3ccc(Cl)cc3C(=O)N2O1 (centres undefined)"
readout_value = "210 to 213 °C"

[[record]]
molecule = "CC(C)(C(=O)O)c1nnc2ccc(NCCCN3CCC(OC(c4ccccc4)c4ccccc4)CC3)nn12"
readout_value = "155 to 157 °C"

[[record]]
molecule = "CCOc1nc(NC(C)C)c2cscc2n1"
readout_value = "155 to 156 °C"

[[record]]
molecule = "CCCn1c(=O)c(C#N)c(N2CCN(C(=O)c3cccs3)CC2)c2cccnc21"
readout_value = "196 °C"

[[record]]
molecule = "CCOC(=O)CON(C)C(=S)Nc1cc(Cl)ccc1C"
readout_value = "83 to 84 °C"

[[record]]
molecule = "CCCCCCCCCCCCCCCCCC(=O)NC(=O)OCc1nc(C(C)C)c(Sc2cc(Cl)cc(Cl)c2)n1Cc1ccncc1"
readout_value = "73 to 77 °C"

[[record]]
molecule = "O=S(=O)(c1nc2c3ccccc3c3ccccc3c2[nH]1)C(F)(F)C(F)F"
readout_value = "254 to 256 °C"

[[record]]
molecule = "COc1nc2cc([N+](=O)[O-])c(C)c(C(=O)NCCC(=O)OC(C)(C)C)c2nc1OC"
readout_value = "140 to 142 °C"


Given item `Cc1ccccc1NC(=O)CN1CC2CCC(C1)N2S(=O)(=O)c1cccc2nsnc12` , the value recorded as its melting point is 169 to 170 °C

Given item `COC(=O)c1cc(OC)c(O)c(C23CC4CC(CC(C4)C2)C3)c1` , the value recorded as its melting point is 179 °C

Given item `C#CCOc1c(-c2ccccc2)c(=O)[nH]c2cc(Cl)ccc12` , the value recorded as its melting point is 183 to 185 °C

Given item COC1(c2ccccc2)N=CC(=O)N(C)c2ccc([N+](=O)[O-])cc21 (centres undefined) , the value recorded as its melting point is 163 to 164 °C

Given item `COc1cc2c(cc1-c1cccnc1)-c1c(C3=CCOCC3)c3c(n1CC2)C(=O)N(C(C)(C)C)CCCC3` , the value recorded as its melting point is 208 to 210 °C

Given item `O=C(O)COc1ccc(F)cc1C(=O)NCc1ccc(Br)cc1F` , the value recorded as its melting point is 145 to 146 °C

Given item Cc1ccc2c(c1)c1c(n2C(=O)c2ccc(F)cc2)CCC(C(=O)O)C1 (centres undefined) , the value recorded as its melting point is 230 to 233 °C

Given item `COc1ccc(CN(C)CCN(C)Cc2ccc(NC(=O)c3cccc4c(=O)c5cccc(OC)c5[nH]c34)cc2)cc1OC` , the value recorded as its melting point is 170 °C

Given item `CNC(=O)Nc1snc(SC)c1C#N` , the value recorded as its melting point is 286 °C

----------
Experimental endpoint: melting point

[[record]]
molecule = "C=CCC1(C(O)C(c2cccc(Cl)c2)n2ccnc2)CC2C=CC1C2 (stereo not given)"
experimental_endpoint = "melting point"
readout_value = "134 to 135 °C"

[[record]]
molecule = "COC(=O)C1=C(C)Nc2c(c(=O)n(C)c(=O)n2C)C1c1cccc([N+](=O)[O-])c1 (stereo not given)"
experimental_endpoint = "melting point"
readout_value = "> 230 °C"

[[record]]
molecule = "CCC(O)(c1ccc(OCc2ccccc2)cc1)c1cccc(Cl)c1 (stereo not given)"
experimental_endpoint = "melting point"
readout_value = "52 to 53 °C"


Turning now to a further record.
Given item `CCCCCCCCC(C)(C)c1cc(=O)c2cc(O)ccc2o1` , the value recorded as its melting point is 257 °C

----------
Measured melting point of individual entries

Observe how each entry below is paired with its result.
[[record]]
compound = "CCCc1noc(/C=C/c2cn(-c3ccccc3)nc2OCc2ccc(OCc3nc(-c4ccco4)oc3C)c(OC)c2)n1"
experimental_endpoint = "melting point"
readout_value = "192 to 193 °C"

[[record]]
compound = "CCOC(=O)C(NC(=O)CS(C)=O)C(=O)OCC (stereo unspecified)"
experimental_endpoint = "melting point"
readout_value = "85 to 87 °C"

[[record]]
compound = "COc1ccc(S(=O)(=O)Nc2cccnc2Nc2ccccc2)c(OC)c1"
experimental_endpoint = "melting point"
readout_value = "176 to 178 °C"

[[record]]
compound = "CCOC(=O)/C=C(/c1ccc(OC)cc1)c1cccc(C#N)c1"
experimental_endpoint = "melting point"
readout_value = "105 to 106 °C"

[[record]]
compound = "CCCCCCCCCCc1cnc(-c2ccc3c(c2)C(=O)C(CCCCCC)C3)nc1 (stereo unspecified)"
experimental_endpoint = "melting point"
readout_value = "87 °C"


Given item CCN(CC)C(=O)c1ccccc1C1CC1c1ccccc1 (stereo unspecified) , the value recorded as its melting point is 52 to 53 °C

Given item `O=C1NCN(c2ccccc2)C12CCN(CCCOc1ccc(F)cc1Cl)CC2` , the value recorded as its melting point is 154 to 155 °C

Given item `O=c1c2ccc(Cl)cc2ncn1CCCCn1ccnc1` , the value recorded as its melting point is 123 to 125 °C
